SYSTEM_NAME: WEE1 (Homo sapiens, UniProt P30291)
Construct: Drug treated cells are fixed and stained with propidium iodide (PI); endogenous in cells
Sequence (P30291 whole entry): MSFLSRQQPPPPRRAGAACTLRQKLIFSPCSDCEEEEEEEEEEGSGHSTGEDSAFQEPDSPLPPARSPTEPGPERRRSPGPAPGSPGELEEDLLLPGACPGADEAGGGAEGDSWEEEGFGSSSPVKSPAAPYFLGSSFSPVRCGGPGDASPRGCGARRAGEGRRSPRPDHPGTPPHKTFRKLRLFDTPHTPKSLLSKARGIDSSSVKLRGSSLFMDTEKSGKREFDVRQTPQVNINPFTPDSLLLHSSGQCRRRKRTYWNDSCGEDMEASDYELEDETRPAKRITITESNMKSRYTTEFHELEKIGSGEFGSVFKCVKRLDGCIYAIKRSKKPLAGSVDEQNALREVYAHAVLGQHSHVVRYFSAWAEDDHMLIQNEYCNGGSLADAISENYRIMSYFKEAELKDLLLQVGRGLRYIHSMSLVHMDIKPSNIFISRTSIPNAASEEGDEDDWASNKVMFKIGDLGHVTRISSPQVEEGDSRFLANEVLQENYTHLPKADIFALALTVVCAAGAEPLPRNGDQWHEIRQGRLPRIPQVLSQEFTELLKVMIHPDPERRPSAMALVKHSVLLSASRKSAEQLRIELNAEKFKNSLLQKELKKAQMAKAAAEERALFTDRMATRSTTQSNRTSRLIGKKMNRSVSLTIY
EXPERIMENT_DESCRIPTION: Guava flow cytometry cell cycle assay (DNA content per cell, propidium iodide)
Assay type: cell-based
CONDITION_SUMMARY: single agent; unit assumed
ATTRIBUTE_MEASURED: WEE1 Guava MEC Guava MEC (µM)

[a] O=c1c2cnc(Nc3cnn(C4CCCNC4)c3)nc2c(Br)cn1-c1c(Cl)cccc1Cl (stereo not drawn)
[b] Cc1cc(Cl)c(-n2cc(Br)c3nc(Nc4cnn(C5CCN(C)CC5)c4)ncc3c2=O)c(Cl)c1
[c] Cc1cccc(F)c1-n1cc(Br)c2nc(Nc3cnn(C4CCNCC4)c3)ncc2c1=O
[d] CN1Cc2cc(Nc3ncc4c(=O)n(-c5c(Cl)cccc5Cl)cc(Br)c4n3)ccc2C2(CC2)C1
Highest to lowest WEE1 Guava MEC Guava MEC: rank the entries shown above. List labels; respect the requested ordering.
c, b, a, d
(c: 5 µM, b: 2.5 µM, a: 0.625 µM, d: 0.313 µM)
